- Test system: HEK-293T
- assay.explanation: Multiplex assay against HEK293T
- Type: toxicity, cell-based
- recorded.conditions: human, 48 h, 1 µM, compound concentration 1 uM, replicate 1
readout: Population Mitotic Cells (%)

> print(dat)
                                   molecule  target.or.test.system  numeric.result
1  COc1ccc(NS(=O)(=O)c2sc3ccc(Cl)cc3c2C)cc1N1CCNCC1.Cl               HEK-293T              52
2  Cc1nc(Cc2cccc(C(F)(F)F)c2)sc1-c1ccc(C(N)=O)nc1 [TP-024n]               HEK-293T              67
3  Nc1nc2c(c(N3CCNCC3)n1)CCC1=C2[C@@H]2CCCC[C@@H]2O1               HEK-293T              63
4  CCn1c(-c2nonc2N)nc2cnc(Oc3cccc(NC(=O)c4ccc(OCCN5CCOCC5)cc4)c3)cc21 [GSK-269962A]               HEK-293T              43
5  CCc1cc2c(cc1CC)CC(NC[C@H](O)c1ccc(O)c3[nH]c(=O)ccc13)C2               HEK-293T              56
6  COc1cc2c(NC3CCN(C(C)C)CC3)nc(N3CCC(F)(F)CC3)nc2cc1OCCCN1CCCC1               HEK-293T              44
7  CC(=O)c1cc(-c2cc(C(=O)NC3CC3)ccc2C)c2ncccn12               HEK-293T              55

###

- Tested on: U2OS
- assay.explanation: Multiplex assay against U2OS
- Format: toxicity, cell-based
- recorded.conditions: human, 24 h, 10 µM, compound concentration 10 uM, replicate 1
The following compounds are shown together with reported Population Membrane Permeable-Phenotype (%) values.
readout: Population Membrane Permeable-Phenotype (%)

> print(dat)
                                   compound  numeric.result
1  CCCn1c(=O)c2[nH]c(C34CC5CC(CC3C5)C4)nc2n(CCC)c1=O              38
2  Cc1nc(Cc2cccc(C(F)(F)F)c2)sc1-c1ccc(C(N)=O)nc1 [TP-024n]               8
3  CCOc1cc2ncc(C#N)c(Nc3ccc(OCc4cccc(F)c4)c(Cl)c3)c2cc1NC(=O)/C=C/CN(C)C              32

###

- Tested on: Fibroblast
- assay.explanation: Multiplex assay against human fibroblast
- Type: toxicity, cell-based
- recorded.conditions: 48 h, 10 µM, compound concentration 10 uM, replicate 1
The following compounds are shown together with reported Population Apoptotic (%) values.

compound	Population Apoptotic (%)
Cc1nc(Cc2cccc(C(F)(F)F)c2)sc1-c1ccc(C(N)=O)nc1 [TP-024n]	77
CCC(=O)O[C@]1(C(=O)SCF)[C@H](C)C[C@H]2[C@@H]3C[C@H](F)C4=CC(=O)C=C[C@]4(C)[C@@]3(F)[C@@H](O)C[C@@]21C [FLUTICASONE PROPIONATE]	75
CC(=O)c1cc(-c2cc(C(=O)NC3CC3)ccc2C)c2ncccn12	52
Nc1ccc(C(=O)Nc2cccc(-c3nc(N4CCOCC4)c4oc5ncccc5c4n3)c2)cn1	51
COc1cc2c(NC3CCN(C(C)C)CC3)nc(N3CCC(F)(F)CC3)nc2cc1OCCCN1CCCC1	37
COc1ccc(NS(=O)(=O)c2sc3ccc(Cl)cc3c2C)cc1N1CCNCC1.Cl	86
C1=N/C2=N/c3ccc(OCCN4CCCC4)c(c3)COC/C=C\COCc3cccc(c3)C(=C1)N2	87
CC(C)N1CCC(C)(C)c2cc(C#Cc3ccc(C(=O)O)cc3)ccc21	60
